Test: qHTS assay to identify small molecule agonists of the estrogen receptor beta (ER-beta) signaling pathway - cell viability counter screen (AID 1259380); also: nearly all actives have a fitted effect of over 30% in size; also: potency is read from the fitted curve at half-maximal effect
Conditions: ER-beta-bla HEK293T viability, CellTiter-Glo luminescence, 16 h; series mostly up to 92.4 µM
Inconclusive results are not listed. The source made the active and inactive calls. Calls follow the shape of the dose curve; as a rule, active = well fitted cell-killing curve with a large enough effect in the repeat runs; inconclusive = weak or mixed curves, or effect the other way; inactive = flat fitted curve, though single readings scatter.
Measurement label: Potency

Compound	Reported value
O=[N+]([O-])c1ccc(O)cc1C(F)(F)F	inactive
CCCCNS(=O)(=O)c1ccc(C)cc1	inactive
O=c1oc2cc(O)ccc2c2oc3cc(O)ccc3c12	37 µM (active)
CCCCCCCC/C=C\CCCCCCCCN	inactive
Cc1ccc(O)c(N)c1	24.4 µM (active)
O=S(=O)(O)c1ccc(N=Nc2c(O)ccc3ccccc23)cc1	43.3 µM (active)
COC1=C(OC)C(=O)C(CCCCCCCCCCO)=C(C)C1=O	23.7 µM (active)
O=C(/C=C/c1ccc(O)c(O)c1)O[C@@H](C(=O)O)[C@@H](OC(=O)/C=C/c1ccc(O)c(O)c1)C(=O)O	inactive
O=c1[nH]c(=O)n([C@H]2C[C@H](O)[C@@H](CO)O2)cc1F	0.15 µM (active)
COc1cc(C)ccc1O	inactive
O=C1CCCCCCCCCCCCCCCO1	inactive
CCOC(=O)c1ccc(C2CCC(NC[C@H](O)COc3ccc(O)c(NS(C)(=O)=O)c3)CC2)cc1 (some centres not stated)	50.2 µM (active)
CCc1cccc(CC)c1NC(=O)CN(CC(=O)O)CC(=O)O	inactive
O=C(/C=C/c1ccccc1)OC/C=C/c1ccccc1	inactive
CNc1ccc([N+](=O)[O-])cc1	inactive
CC(C)(c1cc(Br)c(OCC(Br)CBr)c(Br)c1)c1cc(Br)c(OCC(Br)CBr)c(Br)c1 (configuration not stated)	inactive
COc1ccc2c(c1)c(CC(=O)OC/C=C(\C)CC/C=C(\C)CCC=C(C)C)c(C)n2C(=O)c1ccc(Cl)cc1	inactive
